What follows is a record of pIC50 for Epidermal growth factor receptor (Homo sapiens, UniProt P00533).
Interpret pIC50 as the negative base-10 log of the concentration measured in mol/L.

1. C=CC(=O)Nc1ccc2ncc(C#N)c(Nc3cccc(Br)c3)c2c1 : 6.23
2. CCCNCC#CC(=O)Nc1ccc2ncc(C#N)c(Nc3cccc(Br)c3)c2c1 : 6.89
3. COCC#CC(=O)Nc1cc2c(Nc3cccc(Br)c3)c(C#N)cnc2cc1OC : 6.10

Consider the record given below.
Short answer please: pIC50, Epidermal growth factor receptor (Homo sapiens, UniProt P00533), entry CC#CC(=O)Nc1ccc2ncc(C#N)c(Nc3cccc(Br)c3)c2c1
6.03

Values were extracted from ChEMBL document CHEMBL3046694.
